src = patent US10981926B2

molecular target: wild-type Androgen Receptor (AR-wt) (Homo sapiens (Human), UniProt P10275); experiment: LNCaP-AR-wt ANT reporter assay (antagonist mode); format: cell-based; conditions: antagonist mode; pIC50 = −Log10(IC50 in Molar); read-out: LNCaP-AR-wt ANT pIC50 (converted)
Sequence (P10275 whole entry): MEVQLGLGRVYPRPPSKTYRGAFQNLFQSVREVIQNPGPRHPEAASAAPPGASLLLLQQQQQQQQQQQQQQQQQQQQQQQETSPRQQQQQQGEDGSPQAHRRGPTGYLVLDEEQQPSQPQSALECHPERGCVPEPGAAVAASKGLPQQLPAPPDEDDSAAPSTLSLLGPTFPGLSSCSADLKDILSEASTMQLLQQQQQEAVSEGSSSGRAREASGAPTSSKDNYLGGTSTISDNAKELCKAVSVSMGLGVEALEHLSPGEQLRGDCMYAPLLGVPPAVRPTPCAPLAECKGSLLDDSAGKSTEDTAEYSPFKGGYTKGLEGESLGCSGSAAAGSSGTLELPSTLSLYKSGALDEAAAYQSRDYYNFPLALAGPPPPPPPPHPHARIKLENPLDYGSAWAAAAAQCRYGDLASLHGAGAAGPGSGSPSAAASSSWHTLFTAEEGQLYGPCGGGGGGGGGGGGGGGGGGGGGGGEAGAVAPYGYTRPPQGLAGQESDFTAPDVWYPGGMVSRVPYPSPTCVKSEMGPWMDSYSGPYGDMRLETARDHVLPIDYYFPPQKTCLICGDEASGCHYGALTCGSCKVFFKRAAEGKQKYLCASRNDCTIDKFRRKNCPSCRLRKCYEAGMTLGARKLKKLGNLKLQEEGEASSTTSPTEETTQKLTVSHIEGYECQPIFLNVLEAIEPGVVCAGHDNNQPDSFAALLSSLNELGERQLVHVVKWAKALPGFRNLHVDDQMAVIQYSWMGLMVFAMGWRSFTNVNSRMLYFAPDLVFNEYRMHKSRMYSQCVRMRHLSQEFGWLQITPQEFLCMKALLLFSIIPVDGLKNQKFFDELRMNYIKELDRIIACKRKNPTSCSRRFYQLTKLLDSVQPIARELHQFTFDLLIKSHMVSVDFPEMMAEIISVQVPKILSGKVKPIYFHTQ
List of IC50 values.
Lab book: enter the figure in nM, no units written.

Consider the following illustrative entries.
INSERT INTO measurements (molecule, assayed_target, property_measured, value) VALUES
  ('N#CCN1CCC(Oc2ccc(N3C(=S)N(c4cnc(C#N)c(C(F)(F)F)c4)C(=O)C34CCC4)cc2)CC1', 'wild-type Androgen Receptor (AR-wt) (Homo sapiens (Human), UniProt P10275)', 'IC50', 676),
  ('CN1CCC12CC(Oc1ccc(N3C(=S)N(c4cnc(C#N)c(C(F)(F)F)c4)C(=O)C34CCC4)cn1)C2 (stereo not shown)', 'wild-type Androgen Receptor (AR-wt) (Homo sapiens (Human), UniProt P10275)', 'IC50', 229),
  ('N#Cc1ncc(N2C(=O)C3(CCC3)N(c3ccc(OC4CCCNCC4)cc3)C2=S)cc1C(F)(F)F (stereo not shown) [Cpd 17]', 'wild-type Androgen Receptor (AR-wt) (Homo sapiens (Human), UniProt P10275)', 'IC50', 1510);

Next, consider the following molecule.
Req: Look up IC50 with wild-type Androgen Receptor (AR-wt) (Homo sapiens (Human), UniProt P10275) for this molecule: CC(C)(C)CCN1CCC(Oc2ccc(N3C(=S)N(c4cnc(C#N)c(C(F)(F)F)c4)C(=O)C34CCC4)cc2)CC1
Resp: 3310

----------
biological target: wild-type Androgen Receptor (AR-wt) (Homo sapiens (Human), UniProt P10275); experiment: LNCaP-AR-wt AG reporter assay (agonist mode); format: cell-based; conditions: agonist mode; maximum % stimulation over tested concentration range; read-out: LNCaP-AR-wt AG MAX % Stim
property-measured: Emax (%)
Lab book: enter the figure in %, no units written.

INSERT INTO results (smiles_entry, value) VALUES
  ('COc1cc(N2C(=O)C3(CCC3)N(c3ccc4c(cnn4C4CCN(C)CC4)c3)C2=S)cnc1C#N', 0.2),
  ('N#Cc1ncc(N2C(=O)C3(CCC3)N(c3ccc4ccn(CCO)c4c3)C2=S)cc1C(F)(F)F', 0),
  ('CN1CCC(n2ccc3cc(N4C(=S)N(c5cnc(C#N)c(C(F)(F)F)c5)C(=O)C45CCC5)ccc32)CC1', -0.1),
  ('CN1CCC(c2nc3cc(N4C(=S)N(c5cnc(C#N)c(C(F)(F)F)c5)C(=O)C45CCC5)ccc3[nH]2)CC1', 0.4),
  ('Cc1cc(N2C(=O)C3(CCC3)N(c3cnc(OC4CCN(CCO)CC4)nc3)C2=S)cnc1C#N', -0.1),
  ('CN1CCC(CN(C)C(=O)c2ccc(N3C(=S)N(c4cnc(C#N)c(C(F)(F)F)c4)C(=O)C34CCC4)cc2)CC1', -0.1);

Next, consider the following molecule.
Req: So what's the measured Emax for this one? CN(C(=O)OC(C)(C)C)C1(COc2ccc(N3C(=S)N(c4cnc(C#N)c(C(F)(F)F)c4)C(=O)C34CCC4)cc2)COC1
Resp: -0.2

----------
target: F876L mutant Androgen Receptor (AR-F876L) (Homo sapiens (Human), UniProt P10275, F877L); experiment: LNCaP-AR-F876L ANT reporter assay (antagonist mode); type: cell-based; conditions: antagonist mode; pIC50 = −Log10(IC50 in Molar)
Sequence (P10275 whole entry F877L): as the sequence (P10275 whole entry) above, with F877L counted along it
property-measured: LNCaP-AR-F876L ANT pIC50
In your answer, state the number alone without any accompanying words.

INSERT INTO measurements (molecule, value) VALUES
  ('N#Cc1ncc(N2C(=O)C3(CCC3)N(c3ccc(O[C@H]4C[C@H]5CC[C@@H](C4)N5)cc3)C2=S)cc1C(F)(F)F', 6.40),
  ('CN1CCC(Oc2ccc(N3C(=S)N(c4cnc(C#N)c(C(F)(F)F)c4)C(=O)C34CCC4)cn2)CC1', 7.07),
  ('N#Cc1ncc(N2C(=O)C3(CCC3)N(c3ccc(OC4CCNCC4)cc3)C2=S)cc1Cl', 7.43),
  ('N#Cc1ncc(N2C(=O)C3(CCC3)N(c3ccc(O)nc3)C2=S)cc1C(F)(F)F', 6.00),
  ('CC1COC(COc2ccc(N3C(=S)N(c4cnc(C#N)c(C(F)(F)F)c4)C(=O)C34CCC4)cc2)CN1 (stereo not shown)', 7.49),
  ('CC(C)(C)OC(=O)N1C2CCC1C(F)C(Oc1ccc(N3C(=S)N(c4cnc(C#N)c(C(F)(F)F)c4)C(=O)C34CCC4)cc1)C2 (stereo not shown)', 6.37);

Req: So what's the measured LNCaP-AR-F876L ANT pIC50 for this one? N#Cc1ncc(N2C(=O)C3(CCC3)N(c3ccc(OC4CCNCC4)nc3)C2=S)cc1C(F)(F)F
Resp: 7.43

Req: So what's the measured LNCaP-AR-F876L ANT pIC50 for this one? N#Cc1ncc(N2C(=O)C3(CCC3)N(c3ccc(C4CC5CCC(C4)N5)cc3)C2=S)cc1C(F)(F)F (stereo not shown)
Resp: 6.03

Req: So what's the measured LNCaP-AR-F876L ANT pIC50 for this one? Cc1cc(N2C(=O)C3(CCC3)N(c3ccc(OC4CCNCC4)nc3)C2=S)cnc1C#N
Resp: 7.09

Req: So what's the measured LNCaP-AR-F876L ANT pIC50 for this one? N#Cc1ncc(N2C(=O)C3(CCC3)N(c3ccc(CN4CCNCC4)cc3)C2=S)cc1C(F)(F)F
Resp: 6.69
